Each entry below carries its recorded Ratio IC50.
Species on record: Homo sapiens
Assay info: Selectivity index, ratio of IC50 for human recombinant MAO-A to IC50 for human recombinant MAO-B

Observe how each entry below is paired with its result.
COc1cc(-c2cc3cc(C)ccc3oc2=O)ccc1Br    > 31200
Cc1ccc2oc(=O)c(-c3cccc(O)c3)cc2c1    54
COc1cc(OC)cc(-c2cc3cc(C)ccc3oc2=O)c1    > 11100
CC(=O)COc1ccc2oc(=O)c(-c3ccc(C)cc3)cc2c1    > 18
COc1cccc(-c2cc3cc(C)ccc3oc2=O)c1    > 125000
COc1ccc2oc(=O)c(-c3cccc(C)c3)cc2c1    > 5880

Entry `COc1ccc(-c2cc3cc(C)ccc3oc2=O)cc1OC` — recorded Ratio IC50 = 9210

Entry `COc1ccc(-c2cc3cc(C)ccc3oc2=O)cc1Br` — recorded Ratio IC50 = > 136000

Entry `Cc1ccc2oc(=O)c(-c3ccccc3O)cc2c1` — recorded Ratio IC50 = 180

Entry `CC(=O)COc1cccc(-c2cc3cc(C)ccc3oc2=O)c1` — recorded Ratio IC50 = > 555

Entry `COc1cc(-c2cc3cc(C)ccc3oc2=O)cc(OC)c1OC` — recorded Ratio IC50 = > 623

Entry `Cc1ccc2oc(=O)c(-c3ccccc3)cc2c1` — recorded Ratio IC50 = > 352

---

Each entry below carries its recorded IC50.
Target of assay: Amine oxidase [flavin-containing] A (Homo sapiens, UniProt P21397)
Sequence (P21397 whole entry): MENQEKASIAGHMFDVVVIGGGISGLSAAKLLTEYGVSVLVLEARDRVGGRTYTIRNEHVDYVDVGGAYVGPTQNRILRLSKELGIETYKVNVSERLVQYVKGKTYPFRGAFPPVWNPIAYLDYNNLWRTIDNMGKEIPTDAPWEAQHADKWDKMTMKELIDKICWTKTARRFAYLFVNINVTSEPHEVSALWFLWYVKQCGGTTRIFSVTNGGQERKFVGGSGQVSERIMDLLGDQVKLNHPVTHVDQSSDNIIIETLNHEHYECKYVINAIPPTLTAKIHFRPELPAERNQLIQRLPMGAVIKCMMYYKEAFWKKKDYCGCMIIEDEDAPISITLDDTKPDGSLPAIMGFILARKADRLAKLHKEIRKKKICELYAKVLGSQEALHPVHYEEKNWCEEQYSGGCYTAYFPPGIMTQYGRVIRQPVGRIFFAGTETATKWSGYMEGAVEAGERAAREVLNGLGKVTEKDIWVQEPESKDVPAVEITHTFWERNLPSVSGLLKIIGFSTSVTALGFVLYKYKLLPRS
Assay info: Inhibition of human recombinant MAO-A expressed in insect BT1-TN-5B1-4 cells assessed as production of hydrogen peroxide from p-tyramine up to 15 mins by amplex red-based fluorometric assay
State just the number; it will be interpreted in µM.

Observe how each entry below is paired with its result.
Cc1ccc2oc(=O)c(-c3cccc(O)c3)cc2c1    35
COc1ccc(-c2cc3cc(C)ccc3oc2=O)cc1OC    25.1
Cc1ccc(-c2cc3cc(O)ccc3oc2=O)cc1    24.9

Now let's try a different one.
Item `Cc1ccc2oc(=O)c(-c3ccccc3O)cc2c1` ; assay system Amine oxidase [flavin-containing] A (Homo sapiens, UniProt P21397); IC50 reported as 21.6

---

Target of assay: Amine oxidase [flavin-containing] B (Homo sapiens, UniProt P27338)
Sequence (P27338 whole entry): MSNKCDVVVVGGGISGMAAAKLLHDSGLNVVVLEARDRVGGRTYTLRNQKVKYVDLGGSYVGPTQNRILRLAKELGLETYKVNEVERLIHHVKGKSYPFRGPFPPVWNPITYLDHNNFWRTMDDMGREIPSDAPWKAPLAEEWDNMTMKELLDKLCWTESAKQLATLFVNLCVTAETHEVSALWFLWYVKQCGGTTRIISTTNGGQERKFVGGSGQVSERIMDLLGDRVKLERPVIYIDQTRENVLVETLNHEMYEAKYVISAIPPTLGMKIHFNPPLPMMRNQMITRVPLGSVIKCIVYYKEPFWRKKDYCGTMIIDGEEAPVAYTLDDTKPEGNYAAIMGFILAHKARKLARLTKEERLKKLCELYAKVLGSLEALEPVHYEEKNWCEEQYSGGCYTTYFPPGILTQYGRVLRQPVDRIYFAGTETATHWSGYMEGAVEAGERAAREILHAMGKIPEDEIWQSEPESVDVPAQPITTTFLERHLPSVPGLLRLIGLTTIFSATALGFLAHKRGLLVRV
Assay info: Inhibition of human recombinant MAO-B expressed in insect BT1-TN-5B1-4 cells assessed as production of hydrogen peroxide from p-tyramine up to 15 mins by amplex red-based fluorometric assay
Each entry below carries its recorded IC50.
State just the number; it will be interpreted in nM.

Observe how each entry below is paired with its result.
COc1ccc2oc(=O)c(-c3cccc(C)c3)cc2c1    17.1
CC(=O)COc1cccc(-c2cc3cc(C)ccc3oc2=O)c1    180
COc1cc(-c2cc3cc(C)ccc3oc2=O)ccc1Br    3.25
COc1ccc(-c2cc3cc(C)ccc3oc2=O)cc1Br    0.74
Cc1cccc(-c2cc3cc(C)ccc3oc2=O)c1    15

Item `Cc1ccc(-c2cc3cc(OC4CCCC4)ccc3oc2=O)cc1` ; assay system Amine oxidase [flavin-containing] B (Homo sapiens, UniProt P27338); IC50 reported as 14500

Item `Cc1ccc(-c2cc3cc(O)ccc3oc2=O)cc1` ; assay system Amine oxidase [flavin-containing] B (Homo sapiens, UniProt P27338); IC50 reported as 67.1

Item `COc1cc(OC)c(Br)c(-c2cc3cc(C)ccc3oc2=O)c1` ; assay system Amine oxidase [flavin-containing] B (Homo sapiens, UniProt P27338); IC50 reported as 54000

Item `COc1ccc2oc(=O)c(-c3ccc(C)cc3)cc2c1` ; assay system Amine oxidase [flavin-containing] B (Homo sapiens, UniProt P27338); IC50 reported as 1.52

---

Target of assay: UniProtKB P27338
Assay info: Inhibition of human recombinant MAO-B expressed in insect BT1-TN-5B1-4 cells assessed as production of hydrogen peroxide from p-tyramine up to 15 mins by amplex red-based fluorometric assay
Each entry below carries its recorded IC50.
State just the number; it will be interpreted in nM.

Observe how each entry below is paired with its result.
CC(=O)COc1ccc2oc(=O)c(-c3ccc(C)cc3)cc2c1    5520
COc1ccc(-c2cc3cc(C)ccc3oc2=O)cc1OC    2.73
Cc1ccc2oc(=O)c(-c3ccccc3O)cc2c1    120

Now let's try a different one.
Entry `Cc1ccc2oc(=O)c(-c3cccc(O)c3)cc2c1` — recorded IC50 = 650
